Source: ChEMBL document CHEMBL1909046

Subject of test: Cytochrome P450 3A4 (Homo sapiens, UniProt P08684)
Sequence (P08684 whole entry): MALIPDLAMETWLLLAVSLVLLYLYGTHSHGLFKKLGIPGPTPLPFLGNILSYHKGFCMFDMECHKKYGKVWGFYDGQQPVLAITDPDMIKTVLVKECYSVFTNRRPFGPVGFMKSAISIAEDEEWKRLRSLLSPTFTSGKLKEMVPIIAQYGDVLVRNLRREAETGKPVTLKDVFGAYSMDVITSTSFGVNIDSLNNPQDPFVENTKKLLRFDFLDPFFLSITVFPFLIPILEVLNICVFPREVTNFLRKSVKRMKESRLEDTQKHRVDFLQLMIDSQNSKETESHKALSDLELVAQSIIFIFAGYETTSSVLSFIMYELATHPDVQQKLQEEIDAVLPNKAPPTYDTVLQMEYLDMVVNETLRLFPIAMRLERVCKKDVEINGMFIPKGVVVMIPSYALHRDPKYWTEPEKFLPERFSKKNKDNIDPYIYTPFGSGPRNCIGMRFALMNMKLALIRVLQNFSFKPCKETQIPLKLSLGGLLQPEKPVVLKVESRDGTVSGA
Condition info: bti-tn-5b1-4; note: in other assays of this panel Not Active means under 50% inhibition at 10 µM
Quantity: IC50

{"columns": ["Compound", "IC50"],
 "data": [
  ["CC1(COc2ccc(CC3SC(=O)NC3=O)cc2)CCCCC1 (configuration not stated)", "Not Active"],
  ["Nc1ccc(C(=O)O)c(O)c1", "Not Active"],
  ["Cc1cnc(NC(=O)C2=C(O)c3ccccc3S(=O)(=O)N2C)s1", "Not Active"],
  ["OC[C@H]1OC2C3[C@@H](CO)OC(O[C@H]4[C@H](O)[C@@H](O)[C@@H](O[C@H]5[C@H](O)[C@@H](O)[C@@H](O[C@H]6[C@H](O)[C@@H](O)[C@@H](O[C@H]7[C@H](O)[C@@H](O)[C@@H](O[C@H]8[C@H](O)[C@@H](O)[C@@H](O[C@H]9[C@H](O)[C@@H](O)C(OC1[C@H](O)[C@H]2O)O[C@@H]9CO)O[C@@H]8CO)O[C@@H]7CO)O[C@@H]6CO)O[C@@H]5CO)O[C@@H]4CO)[C@H](O)[C@H]3O", "Not Active"],
  ["Cc1c(N)nc([C@H](CC(N)=O)NC[C@H](N)C(N)=O)nc1C(=O)N[C@H](C(=O)N[C@H](C)[C@@H](O)[C@H](C)C(=O)N[C@H](C(=O)NCCc1nc(-c2nc(C(=O)NCCC[S+](C)C)cs2)cs1)[C@@H](C)O)[C@@H](O[C@@H]1O[C@@H](CO)[C@@H](O)[C@H](O)[C@@H]1O[C@H]1O[C@H](CO)[C@@H](O)[C@H](OC(N)=O)[C@@H]1O)c1c[nH]cn1.[Br-]", "Not Active"]
]}

# batch size: 7; output IC50 per entry
1. CN(C)CCC=C1c2ccccc2COc2ccccc21 [DOXEPIN]
2. O=C(OC[C@H]1O[C@@H](OC(=O)c2cc(O)c(O)c(OC(=O)c3cc(O)c(O)c(O)c3)c2)[C@H](OC(=O)c2cc(O)c(O)c(OC(=O)c3cc(O)c(O)c(O)c3)c2)[C@@H](OC(=O)c2cc(O)c(O)c(OC(=O)c3cc(O)c(O)c(O)c3)c2)[C@@H]1OC(=O)c1cc(O)c(O)c(OC(=O)c2cc(O)c(O)c(O)c2)c1)c1cc(O)c(O)c(OC(=O)c2cc(O)c(O)c(O)c2)c1
3. Cc1cc(C(C)(C)C)c(O)c(C)c1CC1=NCCN1
4. O=C1CN(/N=C/c2ccc([N+](=O)[O-])o2)C(=O)N1
5. CCCCCCNC(=O)n1cc(F)c(=O)[nH]c1=O
6. Cc1ccnc2c1NC(=O)c1cccnc1N2C1CC1
7. NC(N)=Nc1nc(CSCCC(N)=NS(N)(=O)=O)cs1

["Not Active", "Not Active", "Not Active", "Not Active", "Not Active", "Not Active", "Not Active"]

====

Subject of test: Substance-P receptor (Homo sapiens)
Sequence (P25103 whole entry): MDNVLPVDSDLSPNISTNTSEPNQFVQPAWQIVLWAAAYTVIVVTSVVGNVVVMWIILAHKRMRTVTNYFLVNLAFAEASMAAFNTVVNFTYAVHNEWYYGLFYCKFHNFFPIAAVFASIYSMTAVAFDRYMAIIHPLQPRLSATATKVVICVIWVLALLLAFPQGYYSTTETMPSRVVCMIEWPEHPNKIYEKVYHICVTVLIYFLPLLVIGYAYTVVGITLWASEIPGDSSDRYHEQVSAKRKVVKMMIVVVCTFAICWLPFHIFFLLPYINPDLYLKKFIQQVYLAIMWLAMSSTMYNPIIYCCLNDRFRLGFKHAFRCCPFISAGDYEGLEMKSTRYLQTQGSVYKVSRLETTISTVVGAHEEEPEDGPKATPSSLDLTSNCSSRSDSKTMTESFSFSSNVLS
Format: cell membranes, Membrane
Condition info: cho
Quantity: IC50

Here is how some compounds turned out for IC50.
{"columns": ["Compound", "Subject of test", "IC50"],
 "data": [
  ["CC#C[C@]1(O)CC[C@H]2[C@@H]3CCC4=CC(=O)CCC4=C3[C@@H](c3ccc(N(C)C)cc3)C[C@@]21C [MIFEPRISTONE]", "Substance-P receptor (Homo sapiens)", "Not Active"],
  ["O=C(Nc1ccc(Cl)c(Cl)c1)c1cc(Cl)cc(Cl)c1O [3,3',4',5-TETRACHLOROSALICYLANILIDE]", "Substance-P receptor (Homo sapiens)", "Not Active"],
  ["C[N+]1(C)[C@@H]2C[C@@H](OC(=O)[C@H](CO)c3ccccc3)C[C@H]1[C@@H]1O[C@@H]12.[Br-] [METHSCOPOLAMINE BROMIDE]", "Substance-P receptor (Homo sapiens)", "Not Active"],
  ["CCCCCCNC(=O)n1cc(F)c(=O)[nH]c1=O [CARMOFUR]", "Substance-P receptor (Homo sapiens)", "Not Active"],
  ["CC(C)NCC(O)COc1ccc(CC(N)=O)cc1 (stereo unspecified) [ATENOLOL]", "Substance-P receptor (Homo sapiens)", "Not Active"]
]}

# batch size: 5; output IC50 per entry
1. C=CCO [ALLYL ALCOHOL]
2. Cc1cnc(NC(=O)C2=C(O)c3ccccc3S(=O)(=O)N2C)s1 [MELOXICAM]
3. CN1C[C@H](CNC(=O)OCc2ccccc2)C[C@@H]2c3cccc4c3c(cn4C)C[C@H]21 [METERGOLINE]
4. OC[C@H]1OC2C3[C@@H](CO)OC(O[C@H]4[C@H](O)[C@@H](O)[C@@H](O[C@H]5[C@H](O)[C@@H](O)[C@@H](O[C@H]6[C@H](O)[C@@H](O)[C@@H](O[C@H]7[C@H](O)[C@@H](O)[C@@H](O[C@H]8[C@H](O)[C@@H](O)[C@@H](O[C@H]9[C@H](O)[C@@H](O)C(OC1[C@H](O)[C@H]2O)O[C@@H]9CO)O[C@@H]8CO)O[C@@H]7CO)O[C@@H]6CO)O[C@@H]5CO)O[C@@H]4CO)[C@H](O)[C@H]3O
5. CC1=C(/C=C/C(C)=C/C=C/C(C)=C/C(=O)O)C(C)(C)CCC1 [TRETINOIN]

1. Not Active
2. Not Active
3. Not Active
4. Not Active
5. Not Active

# batch size: 6; output IC50 per entry
1. CCOC(=O)C1=C(C)NC(C)=C(C(=O)OCC)C1c1ccccc1/C=C/C(=O)OC(C)(C)C [LACIDIPINE]
2. CC(C)Cc1ccc([C@H](C)C(=O)O)cc1 [DEXIBUPROFEN]
3. COc1ccc(Cl)cc1C(=O)NCCc1ccc(S(=O)(=O)NC(=O)NC2CCCCC2)cc1 [GLYBURIDE]
4. OC[C@@H](O)[C@@H](O)[C@H](O)[C@H](O)CO [MANNITOL]
5. Cc1ccc(S(=O)(=O)NC(=O)NN2CCCCCC2)cc1 [TOLAZAMIDE]
6. C[C@]12CC[C@@H](O)C[C@@H]1CC[C@@H]1[C@@H]2CC[C@]2(C)C(=O)CC[C@@H]12 [ANDROSTERONE]

["Not Active", "Not Active", "Not Active", "Not Active", "Not Active", "Not Active"]

# batch size: 6; output IC50 per entry
1. O=[As][O-].[Na+] [SODIUM ARSENITE]
2. Cl.NC[C@H]1CC[C@H](C(=O)Oc2ccc(CCC(=O)O)cc2)CC1 [CETRAXATE HYDROCHLORIDE]
3. Cc1cn([C@H]2C=C[C@@H](CO)O2)c(=O)[nH]c1=O [STAVUDINE]
4. COC(=O)C[C@](O)(CCC(C)(C)O)C(=O)O[C@@H]1C(OC)=C[C@]23CCCN2CCc2cc4c(cc2[C@H]13)OCO4 [HARRINGTONINE]
5. CN1C(=O)OC(C)(C)C1=O [TRIMETHADIONE]
6. CC(C)Cn1cnc2c(N)nc3ccccc3c21 [IMIQUIMOD]

Not Active
Not Active
Not Active
Not Active
Not Active
Not Active

# batch size: 4; output IC50 per entry
1. O=C(O)CCc1nc(-c2ccccc2)c(-c2ccccc2)o1 [OXAPROZIN]
2. Cc1ccnc(NS(=O)(=O)c2ccc(N)cc2)n1 [SULFAMERAZINE]
3. ClC1=C(Cl)[C@]2(Cl)[C@@H]3[C@@H]4C[C@@H]([C@H]5O[C@@H]45)[C@@H]3[C@@]1(Cl)C2(Cl)Cl [DIELDRIN]
4. CC(=O)Nc1ccc2c(c1)Cc1ccccc1-2 [2-ACETYLAMINOFLUORENE]

["Not Active", "Not Active", "Not Active", "Not Active"]
